method: Estimation of tracer defluorination by kinetic modeling of cortical bone uptake
Format: in vivo, piglets
conditions used: male, Swedish landrace, pig, plasma, intravenous, piglets; read-out: Half-life stability against defluorination
# key: entry, value: half-life

{"compound": "COc1cc2c(cc1OCCF)CCN1C[C@@H](CC(C)C)[C@H](O)C[C@H]21 [[^18F]FE-DTBZ-d4]", "result": "> 6 h"}

Please look up its half-life: COc1cc2c(cc1OCC[18F])CCN1CC(CC(C)C)C(O)CC21 (centres unmarked) [[^18F]FE-DTBZ]
> 1 h

---

method: Quantification of pancreatic uptake by one-tissue compartment model
Assay type: in vivo, piglets
conditions used: male, Swedish landrace, pig, pancreas, intravenous, average, read-out: VT, average
parameter: Kp

{"compound": "COc1cc2c(cc1OCC[18F])CCN1CC(CC(C)C)C(O)CC21 (centres unmarked) [[^18F]FE-DTBZ]", "Kp": 4.17}
{"compound": "COc1cc2c(cc1OCCF)CCN1C[C@@H](CC(C)C)[C@H](O)C[C@H]21 [[^18F]FE-DTBZ-d4]", "Kp": 3.69}
